Taken from the supplement of paper PMC4840960.

test system: E18 rat cortical neuron-glia co-culture; experiment: myelination (MBP fiber length per Olig2+ nucleus), % of 1 µM DAPT response (DMSO = 0) (% of DAPT); higher = more myelination, active = 50 or more; details: 1 µM; treatment time: 8 days (DIV5-DIV13)
Listing of entries alongside the reported myelination.

{"COMPOUND": "CN(Cc1cnc2nc(N)nc(N)c2n1)c1ccc(C(=O)N[C@@H](CCC(=O)O)C(=O)O)cc1 [Methotrexate]", "myelination": -20.4}
{"COMPOUND": "Cc1onc(-c2c(Cl)cccc2Cl)c1C(=O)N[C@@H]1C(=O)N2[C@@H]1SC(C)(C)[C@@H]2C(=O)O [Dicloxacillin]", "myelination": 5.21}
{"COMPOUND": "Clc1ccc(COC(Cn2ccnc2)c2ccc(Cl)cc2Cl)cc1 (configuration not stated) [Econazole]", "myelination": 0.139}
{"COMPOUND": "CC(=O)Oc1ccccc1C(=O)Nc1ncc([N+](=O)[O-])s1 [Nitazoxanide]", "myelination": 4.89}
{"COMPOUND": "CN(C)c1ccc(O)c2c1C[C@H]1C[C@H]3[C@H](N(C)C)C(O)=C(C(N)=O)C(=O)[C@@]3(O)C(O)=C1C2=O [Minocycline]", "myelination": -6.54}
{"COMPOUND": "Nc1cc(N2CCCCC2)nc(N)[n+]1[O-] [Minoxidil]", "myelination": -26.1}
{"COMPOUND": "COc1c(N2C[C@@H]3CCCN[C@@H]3C2)c(F)cc2c(=O)c(C(=O)O)cn(C3CC3)c12 [Moxifloxacin]", "myelination": -12.3}
{"COMPOUND": "O=C(CCCN1CCC(O)(c2ccc(Cl)cc2)CC1)c1ccc(F)cc1 [Haloperidol]", "myelination": -18}
{"COMPOUND": "O=c1n(CCCN2CCN(c3cccc(Cl)c3)CC2)nc2ccccn12 [Trazodone]", "myelination": -42.9}
{"COMPOUND": "CC[C@H](C)C(=O)O[C@H]1C[C@H](O)C=C2C=C[C@H](C)[C@H](CC[C@@H](O)C[C@@H](O)CC(=O)O)[C@H]21 [Pravastatin]", "myelination": 2.73}
{"COMPOUND": "CC(=O)SCC(Cc1ccccc1)C(=O)NCC(=O)OCc1ccccc1 (configuration not stated) [Racecadotril]", "myelination": -48.7}
{"COMPOUND": "CC(C)NCC(O)COc1cccc2[nH]ccc12 (configuration not stated) [Pindolol]", "myelination": -3.4}
{"COMPOUND": "CC/C(=C(\\c1ccccc1)c1ccc(OCCN(C)C)cc1)c1ccccc1 [Tamoxifen]", "myelination": -18.7}
{"COMPOUND": "C#C[C@]1(O)CC[C@H]2[C@@H]3[C@H](C)CC4=C(CCC(=O)C4)[C@H]3CC[C@@]21C [Tibolone]", "myelination": -17.1}
{"COMPOUND": "O=C(O)c1cc(/N=N/c2ccc(S(=O)(=O)Nc3ccccn3)cc2)ccc1O [Sulfasalazine]", "myelination": -11.7}
{"COMPOUND": "CNCC[C@@H](Oc1ccccc1C)c1ccccc1 [Atomoxetine]", "myelination": -18.6}
{"COMPOUND": "CN(C)CCC(c1ccc(Br)cc1)c1ccccn1 (configuration not stated) [Brompheniramine]", "myelination": -14.9}

----------
Listing of entries alongside the reported fiber score / MBP score.
test system: E18 rat cortical neuron-glia co-culture; experiment: fiber score / MBP score (myelination specific beyond OL differentiation) (ratio); higher = more myelination-specific MBP alignment; conditions: 1 µM; treatment time: 8 days (DIV5-DIV13)
Counter-ions that a name gives are not always drawn.
ENDPOINT_LABEL: fiber score / MBP score

{"MOLECULE": "CN(C)CCC=C1c2ccccc2COc2ccccc21 [Doxepin]", "ENDPOINT_LABEL": "fiber score / MBP score", "REPORTED_VALUE": 0.859}
{"MOLECULE": "CN(C)[C@@H]1C(O)=C(C(N)=O)C(=O)[C@@]2(O)C(O)=C3C(=O)c4c(O)ccc(Cl)c4[C@@H](O)[C@H]3C[C@@H]12", "ENDPOINT_LABEL": "fiber score / MBP score", "REPORTED_VALUE": 0.946}
{"MOLECULE": "OCCOCCN1CCN(C(c2ccccc2)c2ccc(Cl)cc2)CC1 (stereo not given) [Hydroxyzine pamoate salt]", "ENDPOINT_LABEL": "fiber score / MBP score", "REPORTED_VALUE": 0.154}
{"MOLECULE": "CO[C@H]1/C=C/O[C@@]2(C)Oc3c(C)c(O)c4c(O)c(c(/C=N/N5CCN(C6CCCC6)CC5)c(O)c4c3C2=O)NC(=O)/C(C)=C\\C=C\\[C@H](C)[C@H](O)[C@@H](C)[C@@H](O)[C@@H](C)[C@H](OC(C)=O)[C@@H]1C", "ENDPOINT_LABEL": "fiber score / MBP score", "REPORTED_VALUE": 0.893}
{"MOLECULE": "c1cnc(N2CCN(Cc3ccc4c(c3)OCO4)CC2)nc1", "ENDPOINT_LABEL": "fiber score / MBP score", "REPORTED_VALUE": 0.774}
{"MOLECULE": "CN(C)CCCN1c2ccccc2Sc2ccc(Cl)cc21", "ENDPOINT_LABEL": "fiber score / MBP score", "REPORTED_VALUE": 1.04}
{"MOLECULE": "CC(Cc1ccccc1)(NC(=O)CN)c1ccccc1 (stereo not given) [Remacemide]", "ENDPOINT_LABEL": "fiber score / MBP score", "REPORTED_VALUE": 0.793}
{"MOLECULE": "COc1cc(N)c(Cl)cc1C(=O)NC1CCN(CCCOc2ccc(F)cc2)CC1OC (stereo not given) [Cisapride]", "ENDPOINT_LABEL": "fiber score / MBP score", "REPORTED_VALUE": 0.935}
{"MOLECULE": "Nc1ccc(O)c(C(=O)O)c1", "ENDPOINT_LABEL": "fiber score / MBP score", "REPORTED_VALUE": 0.748}
{"MOLECULE": "CN[C@H]1CC[C@@H](c2ccc(Cl)c(Cl)c2)c2ccccc21", "ENDPOINT_LABEL": "fiber score / MBP score", "REPORTED_VALUE": 0.689}
{"MOLECULE": "Cc1ccc(S(=O)(=O)NC(=O)NN2CCCCCC2)cc1 [Tolazamide]", "ENDPOINT_LABEL": "fiber score / MBP score", "REPORTED_VALUE": 0.701}
{"MOLECULE": "CC(C)n1c(/C=C/C(O)CC(O)CC(=O)O)c(-c2ccc(F)cc2)c2ccccc21 (stereo not given)", "ENDPOINT_LABEL": "fiber score / MBP score", "REPORTED_VALUE": 0.312}
{"MOLECULE": "CN1CCCC(n2nc(Cc3ccc(Cl)cc3)c3ccccc3c2=O)CC1 (stereo not given)", "ENDPOINT_LABEL": "fiber score / MBP score", "REPORTED_VALUE": 0.861}
{"MOLECULE": "CC[N+](C)(C)c1cccc(O)c1", "ENDPOINT_LABEL": "fiber score / MBP score", "REPORTED_VALUE": 0.813}
{"MOLECULE": "CCCCC[C@H](O)/C=C/[C@H]1[C@H](O)CC(=O)[C@@H]1CCCCCCC(=O)O", "ENDPOINT_LABEL": "fiber score / MBP score", "REPORTED_VALUE": 1.12}
{"MOLECULE": "NC(=O)c1cccnc1 [Niacinamide]", "ENDPOINT_LABEL": "fiber score / MBP score", "REPORTED_VALUE": 0.96}
{"MOLECULE": "C#C[C@]1(O)CC[C@H]2[C@@H]3CCC4=CC(=O)CC[C@@H]4[C@H]3CC[C@@]21CC", "ENDPOINT_LABEL": "fiber score / MBP score", "REPORTED_VALUE": 0.998}
{"MOLECULE": "CCN1CCC[C@H]1CNC(=O)c1c(O)c(Cl)cc(Cl)c1OC [Raclopride]", "ENDPOINT_LABEL": "fiber score / MBP score", "REPORTED_VALUE": 1.05}
{"MOLECULE": "COC(=O)[C@H](c1ccccc1Cl)N1CCc2sccc2C1", "ENDPOINT_LABEL": "fiber score / MBP score", "REPORTED_VALUE": 0.707}
{"MOLECULE": "CC(=O)[C@H]1CC[C@H]2[C@@H]3C[C@H](C)C4=CC(=O)CC[C@]4(C)[C@H]3[C@@H](O)C[C@]12C", "ENDPOINT_LABEL": "fiber score / MBP score", "REPORTED_VALUE": 1.11}
{"MOLECULE": "CNCCCN1c2ccccc2CCc2ccccc21", "ENDPOINT_LABEL": "fiber score / MBP score", "REPORTED_VALUE": 0.74}
{"MOLECULE": "OC(c1cc(C(F)(F)F)nc2c(C(F)(F)F)cccc12)C1CCCCN1 (stereo not given)", "ENDPOINT_LABEL": "fiber score / MBP score", "REPORTED_VALUE": 0.726}
{"MOLECULE": "NC(=O)c1ncn([C@@H]2O[C@H](CO)[C@@H](O)[C@H]2O)n1", "ENDPOINT_LABEL": "fiber score / MBP score", "REPORTED_VALUE": 1.17}
{"MOLECULE": "O=C1NC(=O)C(c2ccccc2)(c2ccccc2)N1", "ENDPOINT_LABEL": "fiber score / MBP score", "REPORTED_VALUE": 0.39}
{"MOLECULE": "O=c1[nH]c(=O)n([C@H]2C[C@H](O)[C@@H](CO)O2)cc1F", "ENDPOINT_LABEL": "fiber score / MBP score", "REPORTED_VALUE": 1.49}
{"MOLECULE": "CN1[C@@H]2CC[C@H]1C[C@@H](OC(=O)c1c[nH]c3ccccc13)C2", "ENDPOINT_LABEL": "fiber score / MBP score", "REPORTED_VALUE": 0.706}
{"MOLECULE": "CCCNC(C)C(=O)Nc1ccccc1C (stereo not given)", "ENDPOINT_LABEL": "fiber score / MBP score", "REPORTED_VALUE": 0.73}
{"MOLECULE": "Cc1nc2n(c(=O)c1CCN1CCC(c3noc4cc(F)ccc34)CC1)CCCC2", "ENDPOINT_LABEL": "fiber score / MBP score", "REPORTED_VALUE": 0.936}
{"MOLECULE": "COc1cc(C)c(/C=C/C(C)=C/C=C/C(C)=C/C(=O)O)c(C)c1C", "ENDPOINT_LABEL": "fiber score / MBP score", "REPORTED_VALUE": 1.04}
{"MOLECULE": "Cc1onc(-c2ccccc2)c1C(=O)N[C@@H]1C(=O)N2[C@@H]1SC(C)(C)[C@@H]2C(=O)O", "ENDPOINT_LABEL": "fiber score / MBP score", "REPORTED_VALUE": 0.974}
{"MOLECULE": "CC(COc1ccccc1)N(CCCl)Cc1ccccc1 (stereo not given)", "ENDPOINT_LABEL": "fiber score / MBP score", "REPORTED_VALUE": 0.774}
{"MOLECULE": "COc1cc2nc(N3CCN(C(=O)C4COc5ccccc5O4)CC3)nc(N)c2cc1OC (stereo not given)", "ENDPOINT_LABEL": "fiber score / MBP score", "REPORTED_VALUE": 0.727}
{"MOLECULE": "CC(=O)Oc1ccccc1C(=O)Nc1ncc([N+](=O)[O-])s1 [Nitazoxanide]", "ENDPOINT_LABEL": "fiber score / MBP score", "REPORTED_VALUE": 1.18}
{"MOLECULE": "CCOc1cc(CC(=O)N[C@@H](CC(C)C)c2ccccc2N2CCCCC2)ccc1C(=O)O [Repaglinide]", "ENDPOINT_LABEL": "fiber score / MBP score", "REPORTED_VALUE": 0.81}
{"MOLECULE": "C[C@]12CCC(=O)C=C1CC[C@@H]1[C@@H]2[C@@H](O)C[C@@]2(C)[C@H]1CC[C@]2(O)C(=O)COC(=O)CCC(=O)O [Cortisol succinate]", "ENDPOINT_LABEL": "fiber score / MBP score", "REPORTED_VALUE": 0.943}
